The entries below are paired with their reported pIC50.
Tested on: Trypanosoma cruzi
Test Protocol: Antiprotozoal activity against Trypanosoma cruzi Y in vero cells
Assay type: functional, organism-based
pIC50: −log10 of the molar value.

Observe how each entry below is paired with its result.
compound=CCCc1ccc(S(=O)(=O)Nc2cccc3cccnc23)cc1 parameter=pIC50 recorded_measurement="< 4.00"
compound=O=S(=O)(Nc1cccc2cccnc12)c1cc(F)cc(F)c1 parameter=pIC50 recorded_measurement="< 4.00"
compound=CCCc1ccc(S(=O)(=O)Nc2c(Br)cc(Br)c3cccnc23)cc1 parameter=pIC50 recorded_measurement="< 4.00"

For reference, reported pIC50 for "O=[N+]([O-])c1ccc(S(=O)(=O)Nc2cccc3cccnc23)cc1" stands at < 4.00

For reference, reported pIC50 for "CN(C)c1cccc2c(S(=O)(=O)Nc3cccc4cccnc34)cccc12" stands at < 4.00

For reference, reported pIC50 for O=C(Cn1ccnc1[N+](=O)[O-])NCc1ccccc1 [BENZNIDAZOLE] stands at 4.84

* * *

Test Protocol: Cytotoxicity against Vero cells by MTT assay
Assay type: cell-based
Test Settings: African green monkey
Parameter: CC50 (µM)
The reply should contain only the number, in µM.

structure=O=S(=O)(Nc1cccc2cccnc12)c1cc(F)cc(F)c1 recorded_measurement=66.3
structure=O=S(=O)(Nc1cccc2cccnc12)c1ccc(-c2ccccc2)cc1 recorded_measurement=245

For reference, reported CC50 for "C[C@@H]1[C@H](O)[C@@H](C)/C=C/C=C/C=C/C=C/C=C/C=C/C=C/[C@H](O[C@@H]2O[C@H](C)[C@@H](O)[C@H](N)[C@@H]2O)C[C@@H]2O[C@](O)(C[C@@H](O)C[C@@H](O)[C@H](O)CC[C@@H](O)C[C@@H](O)CC(=O)O[C@H]1C)C[C@H](O)[C@H]2C(=O)O" stands at 98.4

For reference, reported CC50 for "O=S(=O)(Nc1cccc2cccnc12)c1cnc(Cl)c(Br)c1" stands at 67.4

* * *

Test Protocol: Cytotoxicity against Vero cells by MTT assay
Assay type: cell-based
Test Settings: African green monkey
Parameter: CC50 (µM)
The reply should contain only the number, in µM.

Observe how each entry below is paired with its result.
structure=O=S(=O)(Nc1cccc2cccnc12)c1ccc(Br)cc1 recorded_measurement=88.7
structure=O=S(=O)(Nc1cccc2cccnc12)c1cc(Br)c(Br)s1 recorded_measurement=68.7
structure=CCCc1ccc(S(=O)(=O)Nc2cccc3cccnc23)cc1 recorded_measurement=64.4

For reference, reported CC50 for "CN(C)c1cccc2c(S(=O)(=O)Nc3cccc4cccnc34)cccc12" stands at 84.2

* * *

System: Leishmania amazonensis
Test Protocol: Reduction of Leishmania amazonensis 575 infection in mouse peritoneal macrophage at 5 uM after 48 hrs
Type: functional
Set-up: scale not given: the % may be the effect or the level left
Parameter: Activity (%)
The reply should contain only the number, in %.

structure=CCCc1ccc(S(=O)(=O)Nc2cccc3cccnc23)cc1 parameter=Activity recorded_measurement=52.2
structure=CN(C)c1cccc2c(S(=O)(=O)Nc3cccc4cccnc34)cccc12 parameter=Activity recorded_measurement=48.2
structure=O=S(=O)(Nc1cccc2cccnc12)c1ccc(-c2ccccc2)cc1 parameter=Activity recorded_measurement=72.3

Consider the record given below.
For reference, reported Activity for "O=S(=O)(Nc1cccc2cccnc12)c1cnc(Cl)c(Br)c1" stands at 67.1
